// note: log10 of Ki values for Stromelysin-1 (Homo sapiens, UniProt P08254) were reported in different studies
Recorded metric: log10 of Ki (log10 of the value in nM)

| Compound | Result number |
| --- | --- |
| CCCCOc1ccc(S(=O)(=O)CC(CN2C(=O)CN(CCCC)C2=O)C(=O)NO)cc1 (stereo not shown) | 0.26 |
| COc1ccc(S(=O)(=O)CC(O)(CS(=O)(=O)c2ccc(-c3ccccc3)cc2)C(=O)NO)cc1 (racemic) | 1.87 |
| CC(C)C[C@@]1([C@@H](CCNC(=O)c2cccc([N+](=O)[O-])c2)C(=O)NO)CCN(CCc2ccccc2)C1=O (relative stereo) | 4.03 |
| CCC(C)(C)C(NC(=O)OC(C)(C)C)C(=O)Nc1n[nH]c(=S)s1 (stereo not shown) | 3.33 |
| CC(C)C[C@@]1([C@@H](CCNC(=O)c2cccc(F)c2)C(=O)NO)CCN(CCc2ccc(F)cc2)C1=O (relative stereo) | 2.84 |
| O=C(N[C@@H](Cc1ccccc1)C(=O)Nc1n[nH]c(=S)s1)OCc1ccccc1 | 3.78 |
| O=C(CC(NC(=O)COCc1ccccc1)c1ccccc1)Nc1n[nH]c(=S)s1 (stereo not shown) | 2.92 |
